Molecular target: HDAC1 (Homo sapiens, UniProt Q13547)
Sequence (Q13547 whole entry): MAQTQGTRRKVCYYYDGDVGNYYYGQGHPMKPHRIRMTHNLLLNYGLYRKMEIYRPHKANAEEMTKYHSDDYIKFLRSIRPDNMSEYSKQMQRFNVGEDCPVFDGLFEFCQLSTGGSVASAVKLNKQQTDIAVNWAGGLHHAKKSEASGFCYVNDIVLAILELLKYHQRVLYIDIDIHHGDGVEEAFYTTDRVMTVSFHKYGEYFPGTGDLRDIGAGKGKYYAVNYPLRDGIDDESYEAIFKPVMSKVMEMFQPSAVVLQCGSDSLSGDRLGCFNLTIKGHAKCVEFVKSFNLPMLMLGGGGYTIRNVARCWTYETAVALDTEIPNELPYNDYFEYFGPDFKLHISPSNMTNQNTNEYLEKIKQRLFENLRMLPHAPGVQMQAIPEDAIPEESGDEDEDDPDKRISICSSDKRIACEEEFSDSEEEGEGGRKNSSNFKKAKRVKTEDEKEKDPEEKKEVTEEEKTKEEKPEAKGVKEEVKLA
Experiment: HDAC1 enzyme inhibition (assay details not given)
Assay type: biochemical
For each of the molecules below, state its IC50.
Record the result as a number with its unit.

[
  {
    "smi": "Nc1ccc(-c2nc(NCc3ccc(C(=O)NO)cc3)cc3c2[nH]c2ccccc23)cc1",
    "IC50": "41 nM"
  }
]

Shifting focus to the molecule that follows.
Query :: Read the entry O=C(NO)c1ccc(CNc2cc3c([nH]c4ccccc43)c(-c3ccc([N+](=O)[O-])cc3)n2)cc1 and write its reported IC50.
Result :: 65 nM

Each recorded value in this set is attributed to paper PMC8779152.
